study.system: T1, human serum albumin (human, UniProt P02768 25-609)
T1 construct: Negative control of the ELISA; also called HSA
T1 sequence (P02768 25-609 limits assumed): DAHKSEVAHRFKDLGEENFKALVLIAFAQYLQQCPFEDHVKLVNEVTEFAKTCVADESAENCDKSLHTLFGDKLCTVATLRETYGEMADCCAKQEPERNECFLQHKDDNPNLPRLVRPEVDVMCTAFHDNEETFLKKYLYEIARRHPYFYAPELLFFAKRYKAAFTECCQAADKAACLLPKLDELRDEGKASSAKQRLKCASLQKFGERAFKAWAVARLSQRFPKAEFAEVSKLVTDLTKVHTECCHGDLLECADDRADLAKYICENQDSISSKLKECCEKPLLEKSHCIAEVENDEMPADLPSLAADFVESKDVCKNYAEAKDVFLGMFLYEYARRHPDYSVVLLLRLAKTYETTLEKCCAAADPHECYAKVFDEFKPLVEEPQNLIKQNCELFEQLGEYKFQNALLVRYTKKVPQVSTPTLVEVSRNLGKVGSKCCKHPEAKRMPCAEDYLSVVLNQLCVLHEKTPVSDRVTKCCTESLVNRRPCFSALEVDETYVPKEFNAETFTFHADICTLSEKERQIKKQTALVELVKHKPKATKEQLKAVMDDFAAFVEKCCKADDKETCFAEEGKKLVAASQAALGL
method.notes: ELISA, negative control HSA
Experimental: Streptavidin-coated Maxisorp plates (Nunc catalog 436110) were blocked for 1 h in Starting Block T20 (Pierce) and then coated with biotinylated CD137 (using same antigen as in panning) or negative controls (an unrelated Fc-fused recombinant protein and human serum albumin) for 1 h. Plates were rinsed with TBST and diluted lysate was applied to plates for 1 h. […]
Measured ELISA HSA (RLU) accompanies every entry in the list below.
Please give a number only; it is taken to be in RLU.

Worked set:
{"binder": "ISOP193FR9P1G4 (designed binder, not shown: small tags and cut ends) LPAPKNLVVSRVTEDSARLSWTAPDAAFDSFEIYYFENELGGEAIVLTVPGSERSYDLTGLKPGTEYLVTIYGVKGGDWSDPLSAIFTT", "ELISA HSA (RLU)": 640}
{"binder": "ISOP193HR9P1G5 (designed binder, not shown: small tags and cut ends) LPAPKNLVVSRVTEDSARLSWTAPDAAFDSFDIYYYELRLGGEAIVLTVPGSERSYDLTGLKPGTEYLVTIYGVKGCAASDPLSAIFTT", "ELISA HSA (RLU)": 3360}
{"binder": "ISOP193ER9P1C4 (designed binder, not shown: small tags and cut ends) LPAPKNLVVSRVTEDSARLSWTAPDAAFDSFDIYYFEHPVGGEAIVLTVPGSERSYDLTGLKPGTEYLVTIYGVKGGIWSVPLSAIFTT", "ELISA HSA (RLU)": 320}
{"binder": "ISOP193ER9P1D7 (designed binder, not shown: small tags and cut ends) LPAPKNLVVSRVTEDSARLSWTAPDAAFDSFDIYYGEHWKLGEAIVLTVPGSERSYDLTGLKPGTEYLVTIYGVKGGMSSNPLSAIFTT", "ELISA HSA (RLU)": 400}

Now for a further binder.
For reference, reported ELISA HSA (RLU) for ISOP193ER9P1B4 (designed binder, not shown: small tags and cut ends) LPAPKNLVVSHVTEDSARLSWTAPDAAFDSFDIYYFEHPVGGEAIVLTVPGSERSYDLTGLKPGTEYLVTIYGVKGGYLSMPLSAIFTT stands at 320

Cited source for all entries: patent US20220259289A1
